B1: NP_015628.1 (parent)
chain: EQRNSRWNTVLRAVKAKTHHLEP

variants of: B1; assay: protein stability index of a GFP-peptide fusion (GPS, HEK-293T) (PSI 1-6); higher = more stable; conditions: c terminus: native;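 note: lentivirally expressed fusion library, cells FACS-sorted into six equal-sized GFP/DsRed ratio bins, PSI computed from sequencing read fractions per bin weighted by bin number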
Tick T if protein stability index is 3 or greater. Tick F if protein stability index is less than 3.

Sample answers from the record:
Task: Kindly determine if protein stability index recorded for T9H is above or exactly 3.
Result: F

Task: Kindly determine if protein stability index recorded for S5W is above or exactly 3.
Result: F

Task: Reported protein stability index at or above 3? V10A
Result: T

Task: Form field: protein stability index at least 3? Entry: T9N
Result: T

Task: Entry K17L : is its protein stability index no less than 3?
Result: F

Task: Could you please find out whether R12S has protein stability index that meets 3 or exceeds it?
Result: F

Task: protein stability index >= 3 for E22A ?
Result: F

Task: Determine whether this variant has protein stability index no lower than 3: T9F
Result: F

***
Task: Reported protein stability index at or above 3? E22W
Result: T

Task: Hi team, for T9V , is the recorded protein stability index at or above 3?
Result: F

Task: Confirm if protein stability index reported for the variant K15W is 3 or above.
Result: T

Task: Test whether the variant T9E records protein stability index of 3 or higher.
Result: F

Task: Item E22F with protein stability index of 3 or above?
Result: T

Task: Hi, just wondering whether R12D shows protein stability index of 3 or higher.
Result: F

Task: Can A13F be said to have protein stability index at or above 3?
Result: F

Task: Evaluate T18S : protein stability index at minimum 3?
Result: F

Task: Please check the record N8A and state if its protein stability index is at or above 3.
Result: F

Task: Textbook exercise: given the entry T9Y , state whether its protein stability index is greater than or equal to 3.
Result: F

Task: Assess whether reported protein stability index for V14F sits at 3 or higher.
Result: F

Reference source for all entries: the supplement of paper PMC10567573
